Assay: eIF4E expression suppression, luciferase knock-in reporter – cell-based, HT1080, primary screen (AID 1224817);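 also: luciferase reports endogenous eIF4E expression since it is co-expressed from the native EIF4E locus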
Conditions: HT1080 EIF4E-luc2 knock-in reporter, 16 h, at 2.5 µM, active compounds read low
In all, about 2,000 compounds went through this assay and about 25 (1%) were called active. Shown is part of a subset that was picked to be rich in actives.
Strictly below -0.4 in log2 luciferase activity ratio: 1. Otherwise: -1.

Request: Confirm or reject: log2 luciferase activity ratio of C=C1C(=O)OC2C1C(OC(=O)/C(C)=C/C)CC(O)(CCl)C1C(OC(C)=O)C=C(C)C21O (configuration not stated) lies strictly below -0.4
Result: 1

Request: Confirm or reject: log2 luciferase activity ratio of `Sc1ccc2ccccc2c1CNCc1ccccc1` lies strictly below -0.4
Result: -1

Request: Confirm or reject: log2 luciferase activity ratio of `N#CC[N+]1(Cc2ccccn2)CCCC1` lies strictly below -0.4
Result: -1

Request: Confirm or reject: log2 luciferase activity ratio of `N=C(CC(=O)Nc1ccccn1)c1ccccc1` lies strictly below -0.4
Result: -1

Request: Confirm or reject: log2 luciferase activity ratio of C=C1C(=O)OC2C1C(OC(=O)/C(C)=C/COC(C)=O)CC1(CO1)C1C(O)C=C(C)C21 (configuration not stated) lies strictly below -0.4
Result: 1

Request: Confirm or reject: log2 luciferase activity ratio of `O=C(O)CSCC(=O)c1ccccc1` lies strictly below -0.4
Result: -1

Request: Confirm or reject: log2 luciferase activity ratio of `CN(C)CCCNc1cc(O)c2c(c1O)C(=O)c1ccccc1C2=O` lies strictly below -0.4
Result: -1

###

Assay: eIF4E expression suppression, luciferase knock-in reporter – cell-based, HT1080, primary screen (AID 1224817);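 also: luciferase reports endogenous eIF4E expression since it is co-expressed from the native EIF4E locus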
Conditions: HT1080 EIF4E-luc2 knock-in reporter, 16 h, at 2.5 µM, active compounds read low
About 25 (1%) of roughly 2,000 compounds were called active. Many of the other results were omitted from the sample, so actives are more common in it than they were.
Kindly supply the reported log2 luciferase activity ratio values for the records listed here.
Give only the figure.

Request: Quick one: log2 luciferase activity ratio for `CC(=O)Nc1cc(CN2CCCCC2)c(O)c2ncccc12` ?
Result: -0.0787

Request: Quick one: log2 luciferase activity ratio for `CCCCSCc1nc2nc(Cl)c(Cl)nc2[nH]1` ?
Result: -0.0768

Request: Quick one: log2 luciferase activity ratio for OC1C(O)C(O)C(O)C(O)C1O (configuration not stated) ?
Result: -0.102

Request: Quick one: log2 luciferase activity ratio for `Cc1nc(CN2CCCCC2)c(O)c(=O)[nH]1` ?
Result: -0.0244

Request: Quick one: log2 luciferase activity ratio for `COc1c2c(cc3c1[C@@H]1Oc4c(ccc(O)c4CC=C(C)C)[C@@H]1CO3)OC(C)(C)C=C2` ?
Result: -0.0761

Request: Quick one: log2 luciferase activity ratio for `CN(C)CCC(=O)[C@@]1(O)CC[C@H]2[C@@H]3CC=C4C[C@@H](O)CC[C@]4(C)[C@H]3CC[C@@]21C` ?
Result: 0.263

Request: Quick one: log2 luciferase activity ratio for `Cn1cc(NC(=O)c2cc(NC(=O)c3cc(NC=O)cn3C)cn2C)cc1C(=O)NCCC(=N)N` ?
Result: -0.0884

Request: Quick one: log2 luciferase activity ratio for Nc1nc2c(c(=O)[nH]1)NC(CCNc1ccc(C(=O)O)cc1)CN2 (configuration not stated) ?
Result: -0.0715

Request: Quick one: log2 luciferase activity ratio for `NNC(=O)Cc1cccnc1` ?
Result: 0.269

Request: Quick one: log2 luciferase activity ratio for `CCOc1ccc2c(ccc(/C=C\c3cc(C)c4cccnc4c3O)[n+]2C)c1` ?
Result: -0.823

Request: Quick one: log2 luciferase activity ratio for `Cc1c2ccccc2c(CSC(=N)N)c2ccccc12` ?
Result: -2.19

Request: Quick one: log2 luciferase activity ratio for `O=C1c2ccccc2C(=O)N1CCCSc1ccccc1` ?
Result: 0.412

Request: Quick one: log2 luciferase activity ratio for C=C1C(=O)OC2CC(C)C3(O)CCC(=O)C3(C)CC12 (configuration not stated) ?
Result: -0.237

Request: Quick one: log2 luciferase activity ratio for `CC(C)CCC[C@@H](C)[C@H]1CC[C@H]2[C@@H]3CC[C@H]4C[C@H](N)CC[C@]4(C)[C@H]3CC[C@]12C` ?
Result: 0.0721

Request: Quick one: log2 luciferase activity ratio for CC(CSC(=N)N)C(N)=O (configuration not stated) ?
Result: 0.0537

Request: Quick one: log2 luciferase activity ratio for O=C(O)C1OC1C(=O)O (configuration not stated) ?
Result: -0.131

Request: Quick one: log2 luciferase activity ratio for NC(CC(=O)O)(Cc1ccccc1)C(=O)O (configuration not stated) ?
Result: -0.129

Request: Quick one: log2 luciferase activity ratio for `O=C(O)/C=C\C(=O)Nc1ccccn1` ?
Result: 0.0837

Request: Quick one: log2 luciferase activity ratio for `Oc1cccnc1CN1CCCCC1` ?
Result: -0.635

Request: Quick one: log2 luciferase activity ratio for `O=S1(=O)OC(c2ccc(O)cc2)(c2ccc(O)cc2)c2ccccc21` ?
Result: 0.424

Request: Quick one: log2 luciferase activity ratio for `CN1CCN(c2nc3c(c(=O)n(C)c(=O)n3C)n2C)CC1` ?
Result: -0.0962

Request: Quick one: log2 luciferase activity ratio for `O=C(O)c1ccc(Cc2ccccc2C(=O)O)cc1` ?
Result: -0.21

Request: Quick one: log2 luciferase activity ratio for CNC1C(OC2C(OC3C(O)C(O)C(N=C(N)N)C(O)C3N=C(N)N)OC(C)C2(O)/C=N/NC(N)=S)OC(CO)C(O)C1O (configuration not stated) ?
Result: -0.0125

Request: Quick one: log2 luciferase activity ratio for `Ic1ccc2c(c1)N(c1ccccc1)c1cc(N=c3ccc4nc5ccc(I)cc5n(-c5ccccc5)c-4c3)ccc1N2` ?
Result: 0.338

Request: Quick one: log2 luciferase activity ratio for `Oc1ccc(-c2nc(-c3cccnc3)c(-c3ccc(F)cc3)[nH]2)cc1` ?
Result: -0.338

Request: Quick one: log2 luciferase activity ratio for `NC(N)=N/N=C/c1ccc(O)c(C(=O)O)c1` ?
Result: 0.267

Request: Quick one: log2 luciferase activity ratio for `Cc1ccccc1C(=N)c1ccccc1Cc1cccc2ccccc12` ?
Result: 0.0556

Request: Quick one: log2 luciferase activity ratio for `O=C(O)C/C=C/CC(=O)O` ?
Result: -0.0603

Request: Quick one: log2 luciferase activity ratio for O=C(O)C1Cc2c([nH]c3ccccc23)C(CCCCO)N1 (configuration not stated) ?
Result: -0.0145

Request: Quick one: log2 luciferase activity ratio for COC1/C=C\C=C(/C)C(=O)NC2=CC(=O)C(N)=C(CC(C)CC(OC)C(O)C(C)C=C(C)C1OC(N)=O)C2=O (configuration not stated) ?
Result: -1.05

Request: Quick one: log2 luciferase activity ratio for `CN(C)CCN(c1ccccn1)c1ccccn1` ?
Result: -0.0299

Request: Quick one: log2 luciferase activity ratio for `Nc1nccc(Nc2ccc(S(N)(=O)=O)cc2)n1` ?
Result: -0.103

###

Test: eIF4E expression suppression, luciferase knock-in reporter – cell-based, HT1080, primary screen (AID 1224817);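 also: luciferase reports endogenous eIF4E expression since it is co-expressed from the native EIF4E locus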
Details: HT1080 EIF4E-luc2 knock-in reporter, 16 h, at 2.5 µM, active compounds read low
The campaign covered roughly 2,000 compounds. About 25 (1%) were called active. Shown is part of a subset that was picked to be rich in actives.
Kindly supply the reported log2 luciferase activity ratio values for the records listed here.
Give only the figure.

Request: Quick one: log2 luciferase activity ratio for `NC(N)=NC(N)=Nc1ccc(S(N)(=O)=O)cc1` ?
Result: -0.0076

Request: Quick one: log2 luciferase activity ratio for `Nc1nc(Cl)cc(NCCO)n1` ?
Result: -0.615

Request: Quick one: log2 luciferase activity ratio for `CN(C)CCCN=c1c2ccccc2n(C)c2[nH]c(=O)n(C)c(=O)c12` ?
Result: -0.0932

Request: Quick one: log2 luciferase activity ratio for `NC(=O)/C(=C\c1ccncc1)c1cccc2ccccc12` ?
Result: -0.0804

Request: Quick one: log2 luciferase activity ratio for `CC(C)(N=NC(C)(C)C1=NCCN1)C1=NCCN1` ?
Result: -0.215

###

Kindly supply the reported log2 luciferase activity ratio values for the records listed here.
Assay: eIF4E expression suppression, luciferase knock-in reporter – cell-based, HT1080, primary screen (AID 1224817);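 also: luciferase reports endogenous eIF4E expression since it is co-expressed from the native EIF4E locus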
Details: HT1080 EIF4E-luc2 knock-in reporter, 16 h, at 2.5 µM, active compounds read low
The whole screen tested about 2,000 compounds, of which about 25 (1%) were called active. For the sample, actives were picked, then their nearest neighbours and some compounds at random.
Give only the figure.

Request: Quick one: log2 luciferase activity ratio for `CN(C)c1ccc2nc3c(C(=O)O)cc(=O)c(O)c-3oc2c1` ?
Result: -2.21

Request: Quick one: log2 luciferase activity ratio for `NCc1ccc(C(=O)O)cc1` ?
Result: 0.304

Request: Quick one: log2 luciferase activity ratio for `O=C(O)Cc1c(O)ccc2ccccc12` ?
Result: -0.364

Request: Quick one: log2 luciferase activity ratio for NCCN1C(=O)c2ccccc2C1(O)c1ccc(Cl)cc1 (stereo not given) ?
Result: 0.275

Request: Quick one: log2 luciferase activity ratio for `Nc1ccc2[nH]cc(CCC(=O)O)c2c1` ?
Result: -0.0435

Data provenance is PubChem BioAssay AID1224817.
